Documented IC50 across a set of compounds
# target_entity: UniProt:C7C422
# Sequence (C7C422 whole entry, looked up, species assumed): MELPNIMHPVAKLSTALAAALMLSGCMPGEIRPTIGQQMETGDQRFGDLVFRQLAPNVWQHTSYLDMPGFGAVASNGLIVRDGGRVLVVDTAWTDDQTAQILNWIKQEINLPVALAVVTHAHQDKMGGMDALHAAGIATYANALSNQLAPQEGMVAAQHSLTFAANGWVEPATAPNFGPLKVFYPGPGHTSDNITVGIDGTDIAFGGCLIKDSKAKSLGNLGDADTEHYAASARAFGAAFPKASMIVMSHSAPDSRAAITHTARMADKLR
# run_description: biochemical
# Type: biochemical
# measurement_setup: NDM-1 enzyme, CCF2-FA fluorescence assay; read-out: NDM-1 IC50
Record the value in nM, omitting the unit from your answer.

input: What value of measured IC50 is listed for NS(=O)(=O)c1cccc(-c2ccc(CNCc3nn[nH]n3)cc2)c1-c1nnn[nH]1 [Example 381] ?
output: 2.25

input: What value of measured IC50 is listed for Cc1cnc(-c2cccc(S(N)(=O)=O)c2-c2nn[nH]n2)cn1 [Example 248] ?
output: 4.49

input: What value of measured IC50 is listed for NS(=O)(=O)c1ccc2ccccc2c1-c1nnn[nH]1 [Example 399] ?
output: 117

input: What value of measured IC50 is listed for Cc1ccccc1-c1cccc(S(N)(=O)=O)c1-c1nn[nH]n1 [Example 325] ?
output: 1.3

input: What value of measured IC50 is listed for Nc1ncc(-c2ccc(C(F)(F)F)c(S(N)(=O)=O)c2-c2nnn[nH]2)cc1F [Example 476] ?
output: 1.79

input: What value of measured IC50 is listed for CN(C)CCCNCc1ccc(-c2cccc(S(N)(=O)=O)c2-c2nnn[nH]2)cc1 [Example 348] ?
output: 25.4

input: What value of measured IC50 is listed for NS(=O)(=O)c1cccc(-c2ccc(CN3CCNC(=O)C3)cc2)c1-c1nnn[nH]1 [Example 386] ?
output: 3.23

input: What value of measured IC50 is listed for NS(=O)(=O)c1cccc(-c2cnc3cc[nH]c3c2)c1-c1nn[nH]n1 [Example 310] ?
output: 0.994

input: What value of measured IC50 is listed for NC(=O)Cc1ccc(-c2cccc(S(N)(=O)=O)c2-c2nnn[nH]2)cc1 [Example 303] ?
output: 5.06
